ASSAYED SYSTEM: purified HER2 protein (human epidermal growth factor receptor-2) (human, UniProt P04626 23-652)
PROTOCOL SUMMARY: SPR
REPORTED ENDPOINT: Kd (µM)
Number only, in µM; omit the unit.

stdin: Which Kd value belongs to CDTFPYLGWWNPNEYRY [peptide P51] ?
stdout: 0.0186
